- System Under Test: Cytochrome P450 2D6 (Homo sapiens, UniProt P10635)
- Sequence (P10635 whole entry): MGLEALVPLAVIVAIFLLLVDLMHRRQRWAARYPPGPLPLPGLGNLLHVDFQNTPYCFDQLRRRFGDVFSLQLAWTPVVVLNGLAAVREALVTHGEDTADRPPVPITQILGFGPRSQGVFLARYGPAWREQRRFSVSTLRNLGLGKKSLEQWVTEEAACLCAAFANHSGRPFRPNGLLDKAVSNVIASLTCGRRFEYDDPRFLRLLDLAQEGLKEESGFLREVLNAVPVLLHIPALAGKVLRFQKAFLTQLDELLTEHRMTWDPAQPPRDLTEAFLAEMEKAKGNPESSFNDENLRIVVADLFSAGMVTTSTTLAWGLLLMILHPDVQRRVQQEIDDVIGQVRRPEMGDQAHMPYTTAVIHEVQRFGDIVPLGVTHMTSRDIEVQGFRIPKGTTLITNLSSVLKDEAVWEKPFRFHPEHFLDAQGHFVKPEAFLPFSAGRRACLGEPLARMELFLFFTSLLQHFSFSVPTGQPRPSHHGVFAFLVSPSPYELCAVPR
- Protocol Details: Inhibition of human recombinant CYP2D6
pIC50: −log10 of the molar value.
Assay Readout: pIC50

>>> df
                                   molecule  reported_measurement
0  O=C(O)CN1C(=O)C2(CC(=O)N(Cc3ccccc3)C2=O)c2cc(Cl)ccc21 (stereo unspecified)                < 5.00

* * *

- Protocol Details: AUC (0 to last t) in rat at 1 mg/kg, iv
- Type: ADME, organism-based
- Parameters: time 0 - last, dose 1 mg/kg, route intravenous
- Condition Description: plasma
Assay Readout: AUC(0-t) (µg·h/mL)

>>> print(df.to_string())
                                   compound  reported_measurement
0  O=C(O)CN1C(=O)[C@@]2(CC(=O)N(Cc3ccccc3F)C2=O)c2cc(Cl)ccc21                  1.25
1  O=C(O)CN1C(=O)[C@@]2(CC(=O)N(Cc3cc(Cl)ccc3F)C2=O)c2cc(Cl)ccc21                  1.18
2  Cc1noc(-c2ccccc2)c1CN1CC2(CC1=O)C(=O)N(CC(=O)O)c1ccc(Cl)cc12 (centres undefined)                 0.247
3  O=C(O)CN1C(=O)C2(CC(=O)N(Cc3cc(Cl)ccc3F)C2)c2cc(Cl)ccc21 (single isomer, unassigned; form 1)                  1.39

* * *

- Protocol Details: Cmax in rat at 5 mg/kg, po
- Format: ADME, organism-based
- Parameters: dose 5 mg/kg, route oral
- Condition Description: in vivo
Assay Readout: Cmax

>>> df
                                   compound  assay_readout  reported_measurement
0  O=C(O)CN1C(=O)[C@@]2(CC(=O)N(Cc3ccccc3F)C2=O)c2cc(Cl)ccc21           Cmax             297 ng/mL
1  O=C(O)CN1C(=O)[C@@]2(CC(=O)N(Cc3cc(Cl)ccc3F)C2=O)c2cc(Cl)ccc21           Cmax             163 ng/mL
2  Cc1noc(-c2ccccc2)c1CN1CC2(CC1=O)C(=O)N(CC(=O)O)c1ccc(Cl)cc12 (centres undefined)           Cmax               6 ng/mL
3  O=C(O)CN1C(=O)C2(CC(=O)N(Cc3cc(Cl)ccc3F)C2)c2cc(Cl)ccc21 (single isomer, unassigned; form 1)           Cmax              55 ng/mL

* * *

Reported Tmax values are given for each entry in this list.
- Protocol Details: Tmax in Beagle dog at 1 mg/kg, po
- Condition Description: in vivo
Assay Readout: Tmax (h)

                            molecule_smiles  assay_readout  unit_descriptor  reported_measurement
0  O=C(O)CN1C(=O)[C@@]2(CC(=O)N(Cc3ccccc3F)C2=O)c2cc(Cl)ccc21           Tmax                h                     2
1  O=C(O)CN1C(=O)[C@@]2(CC(=O)N(Cc3cc(Cl)ccc3F)C2=O)c2cc(Cl)ccc21           Tmax                h                  2.67

* * *

- Protocol Details: Volume of distribution at steady state in Beagle dog at 1 mg/kg, iv
- Type: ADME, organism-based, Canis lupus familiaris
- Parameters: dose 1 mg/kg, route intravenous
- Condition Description: in vivo, read-out: Vdss
Consider the following compounds and their measured Vd readings.
Assay Readout: Vd (L/kg)

>>> print(df.to_string())
                            molecule_smiles  unit_descriptor  reported_measurement
0  O=C(O)CN1C(=O)[C@@]2(CC(=O)N(Cc3ccccc3F)C2=O)c2cc(Cl)ccc21             L/kg                     2
1  O=C(O)CN1C(=O)[C@@]2(CC(=O)N(Cc3cc(Cl)ccc3F)C2=O)c2cc(Cl)ccc21             L/kg                     5

* * *

- Protocol Details: Lipophilicity, log D of the compound
- Format: physicochemical
- Condition Description: octanol/water
Assay Readout: logD

                                    compound  reported_measurement
 0  O=C(O)CN1C(=O)C2(CC(=O)N(Cc3cc(F)cc(Cl)c3)C2=O)c2cc(Cl)ccc21 (stereo unspecified)                  -0.2
 1  Cc1onc(-c2ccccc2)c1CN1C(=O)CC2(C1=O)C(=O)N(CC(=O)O)c1ccc(Cl)cc12 (stereo unspecified)                  -0.6
 2  O=C(O)CN1C(=O)[C@@]2(CC(=O)N(Cc3cccc(Cl)c3)C2=O)c2cc(Cl)ccc21                  -0.4
 3  O=C(O)CN1C(=O)[C@@]2(CC(=O)N(Cc3cc(Cl)ccc3F)C2=O)c2cc(Cl)ccc21                  -0.5
 4  O=C(O)CN1C(=O)C2(CC(=O)N(Cc3cc(F)ccc3F)C2=O)c2cc(Cl)ccc21 (stereo unspecified)                  -0.9
 5  O=C(O)CN1C(=O)C2(CC(=O)N(Cc3ccc(F)c(F)c3)C2=O)c2cc(Cl)ccc21 (stereo unspecified)                  -0.7
 6  O=C(O)CN1C(=O)C2(CC(=O)N(Cc3cc(Cl)ccc3F)C2)c2cc(Cl)ccc21 (single isomer, unassigned; form 1)                  -0.4
 7  Cc1noc(-c2ccccc2)c1CN1CC2(CC1=O)C(=O)N(CC(=O)O)c1ccc(Cl)cc12 (stereo unspecified)                  -0.3
 8  O=C(O)CN1C(=O)[C@@]2(CC(=O)N(Cc3ccccc3F)C2=O)c2cc(Cl)ccc21                    -1
 9  O=C(O)CN1C(=O)C2(CC(=O)N(Cc3cc(F)cc(F)c3)C2=O)c2cc(Cl)ccc21 (stereo unspecified)                  -0.9
10  O=C(O)CN1C(=O)C2(CC(=O)N(Cc3cc(F)ccc3Cl)C2=O)c2cc(Cl)ccc21 (stereo unspecified)                  -0.3

* * *

- Protocol Details: Half life in rat at 1 mg/kg, iv
- Format: ADME, organism-based
- Parameters: dose 1 mg/kg, route intravenous
- Condition Description: in vivo
Parameter half-life: see the listing below.
Assay Readout: half-life (min)

>>> df
                                   compound  assay_readout  reported_measurement
0  O=C(O)CN1C(=O)[C@@]2(CC(=O)N(Cc3ccccc3F)C2=O)c2cc(Cl)ccc21      half-life                    60
1  Cc1noc(-c2ccccc2)c1CN1CC2(CC1=O)C(=O)N(CC(=O)O)c1ccc(Cl)cc12 (centres undefined)      half-life                     6
2  O=C(O)CN1C(=O)[C@@]2(CC(=O)N(Cc3cc(Cl)ccc3F)C2=O)c2cc(Cl)ccc21      half-life                   780
3  O=C(O)CN1C(=O)C2(CC(=O)N(Cc3cc(Cl)ccc3F)C2)c2cc(Cl)ccc21 (single isomer, unassigned; form 1)      half-life                    54

* * *

- Protocol Details: Cmax in rat at 1 mg/kg, iv
- Format: ADME, organism-based
- Set-up: dose 1 mg/kg, route intravenous
- Condition Description: in vivo
Assay Readout: Cmax (ng/mL)

In [3]: df
Out[3]:
                                   molecule  reported_measurement
0  O=C(O)CN1C(=O)[C@@]2(CC(=O)N(Cc3ccccc3F)C2=O)c2cc(Cl)ccc21                  1990
1  O=C(O)CN1C(=O)[C@@]2(CC(=O)N(Cc3cc(Cl)ccc3F)C2=O)c2cc(Cl)ccc21                  1700
2  O=C(O)CN1C(=O)C2(CC(=O)N(Cc3cc(Cl)ccc3F)C2)c2cc(Cl)ccc21 (single isomer, unassigned; form 1)                  5060
3  Cc1noc(-c2ccccc2)c1CN1CC2(CC1=O)C(=O)N(CC(=O)O)c1ccc(Cl)cc12 (centres undefined)                  1970

* * *

The following molecules are listed with their measured pIC50 values.
- System Under Test: Prostaglandin D2 receptor (Homo sapiens)
- Sequence (Q13258 whole entry): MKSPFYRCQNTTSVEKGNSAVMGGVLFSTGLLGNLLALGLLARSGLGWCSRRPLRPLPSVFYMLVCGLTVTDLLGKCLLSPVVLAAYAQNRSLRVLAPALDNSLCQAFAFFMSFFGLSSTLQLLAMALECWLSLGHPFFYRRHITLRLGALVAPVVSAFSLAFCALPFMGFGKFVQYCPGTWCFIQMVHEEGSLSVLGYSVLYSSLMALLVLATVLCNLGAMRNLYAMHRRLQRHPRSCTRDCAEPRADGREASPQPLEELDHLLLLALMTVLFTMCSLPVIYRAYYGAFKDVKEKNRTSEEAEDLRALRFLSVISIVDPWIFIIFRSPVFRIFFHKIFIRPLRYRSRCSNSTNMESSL
- Protocol Details: Inhibition of prostaglandin D2 receptor
pIC50: −log10 of the molar value.
Assay Readout: pIC50

>>> print(df.to_string())
                            molecule_smiles  reported_measurement
0  O=C(O)CN1C(=O)[C@@]2(CC(=O)N(Cc3cc(Cl)ccc3F)C2=O)c2cc(Cl)ccc21                < 4.52
1  O=C(O)CN1C(=O)[C@@]2(CC(=O)N(Cc3cccc(Cl)c3)C2=O)c2cc(Cl)ccc21                < 4.52
2  O=C(O)CN1C(=O)[C@@]2(CC(=O)N(Cc3ccccc3F)C2=O)c2cc(Cl)ccc21                < 4.52
